Listing: cell viability of selected compounds
System: Caco-2
protocol: cell viability relative to DMSO; higher = less toxic
measurement.conditions: 72 h; 10000 nM
Please state the figure in %; there is no need to write the unit.

Recorded cell viability, per entry:
[[record]]
compound = "CC(C)n1nccc1-c1ncccc1COc1cccc(O)c1C=O [voxelotor]"
u = "%"
value = 84.6

[[record]]
compound = "c1ccc(C(O[C@@H]2CCCN(CCc3ccc4c(c3)OCO4)C2)c2ccccc2)cc1 [zamifenacin]"
u = "%"
value = 92.5

[[record]]
compound = "CC(=O)OCC(=O)[C@H]1CC[C@H]2[C@@H]3CC[C@H]4C[C@H](O)CC[C@]4(C)[C@H]3C(=O)C[C@]12C [alfadolone-acetate]"
u = "%"
value = 100

[[record]]
compound = "COc1cc(N)c(Cl)cc1C(=O)N[C@@H]1CCN(CCCOc2ccc(F)cc2)C[C@@H]1OC (racemic) [cisapride]"
u = "%"
value = 90.3

[[record]]
compound = "C[C@H](Oc1ccc(S(C)(=O)=O)cc1C(=O)N1CCN(c2ncc(C(F)(F)F)cc2F)CC1)C(F)(F)F [bitopertin]"
u = "%"
value = 91.1

[[record]]
compound = "CCOc1ccccc1-n1c(C(C)N2CCN(C(=O)COc3ccc(Cl)cc3)CC2)nc2ccccc2c1=O (configuration not stated) [erastin]"
u = "%"
value = 43.4

[[record]]
compound = "O=C1NC(=O)c2c1c1c3ccccc3n3c1c1c2c2ccccc2n1C1CCC3O1"
u = "%"
value = 80.7

[[record]]
compound = "C[C@H](N)Cc1cccc(O)c1 [gepefrine]"
u = "%"
value = 111


Prompt: # return recorded cell viability for input CCOC(=O)Nc1nc2ccccc2[nH]1 [lobendazole]
Completion: 95.5

Prompt: # return recorded cell viability for input C[C@H]1NC(=O)NC1=O [5-methylhydantoin-(D)]
Completion: 101

Prompt: # return recorded cell viability for input CCc1cc2cc(OC)c(OC)cc2c(Cc2ccccc2)n1 [moxaverine]
Completion: 105

Prompt: # return recorded cell viability for input Cc1cc(OCCCS(C)(=O)=O)cc(C)c1-c1cccc(COc2ccc3c(c2)OC[C@H]3CC(=O)O)c1 [TAK-875]
Completion: 77.8

Prompt: # return recorded cell viability for input CN(C)CCOC1=Cc2ccccc2Sc2ccc(Cl)cc21 [zotepine]
Completion: 75.7

Prompt: # return recorded cell viability for input c1cc(CN2CCCCC2)cc(OCCCNc2nc3ccccc3s2)c1 [zolantidine]
Completion: 86.4

Prompt: # return recorded cell viability for input CN(C)CCC=C1c2ccccc2C=Cc2ccccc21 [cyclobenzaprine]
Completion: 114
